protocol.details: Approximate solubility in 20 solvents
Assay type: physicochemical
condition.set: 2-methf, organic solvent or mixture, 2-MeTHF, RT; read-out: Solubility
Where a name gives a salt, the structure may show the parent alone.
experimental.readout: solubility

Need solubility of CN[C@@]1(c2ccc(F)cc2)CCCCC1=O [1R HCl Form 1] , thanks.
< 2600 µg/mL

* * *

protocol.details: Approximate solubility in 20 solvents
Assay type: physicochemical
condition.set: toluene, organic solvent or mixture, Toluene, RT; read-out: Solubility
Where a name gives a salt, the structure may show the parent alone.
experimental.readout: solubility

Need solubility of CN[C@@]1(c2ccc(F)cc2)CCCCC1=O [1R HCl Form 1] , thanks.
< 2700 µg/mL

* * *

protocol.details: Approximate solubility in 20 solvents
Assay type: physicochemical
condition.set: mtbe, organic solvent or mixture, MTBE, RT; read-out: Solubility
Where a name gives a salt, the structure may show the parent alone.
experimental.readout: solubility

Need solubility of CN[C@@]1(c2ccc(F)cc2)CCCCC1=O [1R HCl Form 1] , thanks.
< 2500 µg/mL
